System: RS2-3 minigene (Firefly Luciferase), HEK-293T cells
Test: Luciferase induction assay, RS2-3 with splice modulator compounds in HEK-293T cells
Type: cell-based
Conditions: Homo sapiens, RS2-3, 1,000 nM, 18 hours, n of 3, read-out: Mean fold-induction of luciferase (relative to vehicle control)
measured_quantity: fold induction at 1 µM
Please reply with the value in numeric form only.

Check out these entries, answers already filled in.
Cc1cn2nc(-c3ccc(-c4ccc(C5CNC5)nn4)c(O)c3)cc(C)c2n1    17.6
Cc1cc2cc(-c3ccc(-c4ccc(C5CN(C6CCOCC6)C5)nn4)c(O)c3)ccn2n1 [Compound 192A]    22.7
Cc1cn2cc(-c3nc(=O)n4cc(N5CCNCC5)cc(C)c4n3)cc(F)c2n1 [Compound 108B]    1.76
Cc1cn2cc(-c3nc(=O)n4cc(N5CCNCC5)ccc4n3)cc(F)c2n1.Cl [Compound 100B, hydrochloride]    26.4
Cc1cn2cc(-c3cc(O)c(-c4ccc(C5CNC5)nn4)cc3F)cc(F)c2n1    16

Input line: Could you tell me which fold induction at 1 µM is on file for Cc1cn2cc(-c3ccc(-c4ccc(C5CN(C6CCOC(C)(C)C6)C5)nn4)c(O)c3)cc(F)c2n1 (centres unmarked) [Compound 86A] ?
Output line: 27.7

Input line: Could you tell me which fold induction at 1 µM is on file for Cc1cn2cc(-c3nc(=O)n4cc(N5CCNCC5)ccc4n3)cc(C)c2n1 [Compound 126B] ?
Output line: 17.8

Input line: Could you tell me which fold induction at 1 µM is on file for Cc1cn2cc(-c3ccc(-c4ccc(C5CN(C(C)C)C5)nn4)c(O)c3)cc(F)c2n1 [Compound 15A] ?
Output line: 39.4
